Test system: MDA-MB-435
Outcomes: active, inactive

COMPOUND	TGT	CLASS NAME
COc1ccc(C(SCC(N)C(=O)O)(c2ccccc2)c2ccccc2)cc1 (stereo not given)	MDA-MB-435	active
NC(N)=N/N=C/c1c(-c2cc(Cl)sc2Cl)nc2sccn12	MDA-MB-435	inactive
CC1COc2c(N3CCN(C)CC3)c(F)cc3c(=O)c(C(=O)O)cn1c23 (stereo not given)	MDA-MB-435	inactive
CC(C)(C)C(=O)OCOP(=O)(OCOC(=O)C(C)(C)C)C1CC(O)N(O)C1=O (stereo not given)	MDA-MB-435	inactive
COc1ccc2cc(-c3cc4c(oc3=O)-c3ccccc3OC4O)c(=O)oc2c1 (stereo not given)	MDA-MB-435	inactive

###

Tested on: NCI-H23 lung
Test: NCI tumour cell line growth inhibition, 48 h
Reported TGI is given for each of the following compounds.

COMPOUND	TGT	TGI
Cc1ccc(S(=O)(=O)N2CCSCCN(S(=O)(=O)c3ccc(C)cc3)CCN(S(=O)(=O)c3ccc(C)cc3)CC2)cc1	NCI-H23 lung	> 100 µM
CCCCCCOc1ccc(C(=O)NO)cc1	NCI-H23 lung	23 µM
C=CCSC1=N/C(=C\c2cccs2)C(=O)N1CC=C	NCI-H23 lung	> 100 µM
COC(=O)/C=C1/CCC(C)(C(=O)NS(=O)(=O)c2ccc(C)cc2)C1(C)C (stereo not drawn)	NCI-H23 lung	> 100 µM
COc1cc2cccc(N)c2cc1OC	NCI-H23 lung	> 100 µM
CN(C)c1ccc(N=C2C=CC(=[N+](C)C)C=C2)cc1	NCI-H23 lung	29.4 µM
COc1ccc(C(CC(=O)C(C)(C)CN2CCCCC2)SCCS(=O)(=O)O)cc1 (stereo not drawn)	NCI-H23 lung	98.7 µM
O=CNc1ncn[nH]1	NCI-H23 lung	> 100 µM
CC[P+](C)(C)c1ccccc1	NCI-H23 lung	> 100 µM
Cc1ccc2ncnc(N(CC(C)C)CC(C)C)c2c1	NCI-H23 lung	28.5 µM
Cc1nnc2sc(NN)nn12	NCI-H23 lung	> 100 µM
CCOC(=O)c1cnc2n(c1=N)[C@H]1CCCC[C@@H]1N2	NCI-H23 lung	> 100 µM
Cl.Fc1c[c-]c(-c2ccccn2)c(F)c1.[Pt].c1ccc(P(c2ccccc2)C([PH+](c2ccccc2)c2ccccc2)[PH+](c2ccccc2)c2ccccc2)cc1	NCI-H23 lung	61.1 µM
CN(C)S(=O)(=O)/N=C/c1cccc(/C=N/S(=O)(=O)N(C)C)c1	NCI-H23 lung	> 100 µM
CC1=C/C(=N\O)C(C(O)(C(F)(F)F)C(F)(F)F)C(C)(C)C1 (stereo not drawn)	NCI-H23 lung	> 10 µM
O=[N+]([O-])c1ccc(Sc2ncnc3nc[nH]c23)c2nonc12	NCI-H23 lung	23.6 µM
COc1ccc(C(=O)COC(=O)[C@H](C[Se][Se]C[C@H](NC(=O)c2ccc(Br)cc2F)C(=O)OCC(=O)c2ccc(OC)cc2)NC(=O)c2ccc(Br)cc2F)cc1	NCI-H23 lung	1.81 µM
O=C1Nc2c(C(F)(F)F)cccc2[C@@]1(c1ccc(O)cc1)c1ccc(OC(F)(F)F)cc1	NCI-H23 lung	< 0.0135 µM

###

System: MCF7 breast
Test: NCI tumour cell line growth inhibition, 48 h

MOLECULE	UNIT OF MEASURE	MEASUREMENT QUALIFIER	TGI
CNC(=O)OCc1c2ccncc2c(C)c2c1[nH]c1ccccc12	µM	=	1.24
Cc1ccc(-c2cc(C(F)(F)F)nn2-c2ccc(S(N)(=O)=O)cc2)cc1	µM	>	58.4
CCCC(=O)NC1CCc2cc(OC)c(OC)c(OC)c2-c2ccc(OC)c(=O)cc21 (stereo unspecified)	µM	>	100
CN(Cc1cc(Br)cc(Br)c1O)Cc1cc(Br)cc(Br)c1O	µM	=	15
CCN(CC)CCOc1ccccc1/C=C/c1noc2ccccc12	µM	=	27.9
CC1=C/C(=N\O)C(C(O)(C(F)(F)F)C(F)(F)F)C(C)(C)C1 (stereo unspecified)	µM	>	10
